Recorded values, source the array DNA melting data of Ke et al. (doi:10.1101/2024.01.08.574731).

The entries below come with measured Tm values attached.
Test: melting temperature; fluorescence melt of hairpins on a sequencing array, two-state fit, raised by 9.35 °C to match UV melts
Conditions: sodium 0.088 M
A number alone suffices; assume °C.

Some entries whose results are on file:
Ordered Residues: GCGACGCGAAAGCTACGC (((..((....))..)))
Measured Result: 52.5
//
Ordered Residues: GCCTCGCGAAAGCCAAGC ((.(.((....)).).))
Measured Result: 28.4
//
Ordered Residues: GTTCTTGGAAACGAGAAC (((((.(....).)))))
Measured Result: 43.6
//
Ordered Residues: GATCTTCGGCAAGATC ((((((....))))))
Measured Result: 37.8
//
Ordered Residues: GTGCTTCGAAAGAAACAC (((.(((....))).)))
Measured Result: 45.6
//
Ordered Residues: GCGCGGCGAAAGCAGTGC ((.(.((....)).).))
Measured Result: 65.5
//
Ordered Residues: GCCCGCGGAAACGCAGGC (((.(((....))).)))
Measured Result: 62.4
//
Ordered Residues: GTCAGTGGAAACACTGGC (.(((((....))))).)
Measured Result: 54.7

Write down Tm measured for item GGGAAACGAAAGTTCCCC (((.(((....))).)))
51

Write down Tm measured for item GGTGGAGGAAACTCTACC (((.(((....))).)))
48
